target-system: UniProtKB P43115
Sequence (P43115 whole entry): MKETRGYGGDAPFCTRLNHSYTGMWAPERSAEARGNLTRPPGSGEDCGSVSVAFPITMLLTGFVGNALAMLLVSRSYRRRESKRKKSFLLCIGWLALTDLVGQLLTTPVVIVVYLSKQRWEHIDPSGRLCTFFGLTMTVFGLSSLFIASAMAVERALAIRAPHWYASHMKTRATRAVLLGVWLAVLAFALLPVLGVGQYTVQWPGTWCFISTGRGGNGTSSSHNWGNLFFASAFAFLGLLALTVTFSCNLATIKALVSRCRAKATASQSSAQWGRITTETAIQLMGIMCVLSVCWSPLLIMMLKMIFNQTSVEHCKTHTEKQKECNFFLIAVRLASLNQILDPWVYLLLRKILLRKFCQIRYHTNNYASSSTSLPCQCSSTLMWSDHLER
experimental-endpoint: Ki

{"query-smiles": "COc1cc(C/C=C/c2ccccc2/C=C/C(=O)O)ccc1OCCN", "target-system": "UniProtKB P43115", "recorded-measurement": "1500 nM"}

====

target-system: Prostaglandin E2 receptor EP2 subtype (Homo sapiens, UniProt P43116)
Sequence (P43116 whole entry): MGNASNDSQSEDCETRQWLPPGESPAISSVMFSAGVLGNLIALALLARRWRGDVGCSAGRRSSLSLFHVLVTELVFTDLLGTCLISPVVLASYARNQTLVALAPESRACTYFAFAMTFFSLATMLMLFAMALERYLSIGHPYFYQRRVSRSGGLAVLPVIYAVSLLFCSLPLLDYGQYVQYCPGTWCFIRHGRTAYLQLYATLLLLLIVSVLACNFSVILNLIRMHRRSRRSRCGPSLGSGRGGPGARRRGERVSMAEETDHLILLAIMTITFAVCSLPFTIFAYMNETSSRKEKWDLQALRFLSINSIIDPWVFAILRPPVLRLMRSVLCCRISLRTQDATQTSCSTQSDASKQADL
pKi: −log10 of the molar value.
Examples of compounds with documented pKi follow.

{"query-smiles": "COc1cc(C/C=C/c2ccccc2/C=C/C(=O)O)ccc1OCCn1cc2ccccc2c1C#N", "target-system": "Prostaglandin E2 receptor EP2 subtype (Homo sapiens, UniProt P43116)", "pKi": 5.37}
{"query-smiles": "COc1cc(C/C=C/c2ccccc2/C=C/C(=O)NS(=O)(=O)c2cccs2)ccc1OCCn1cc2ccccc2c1C#N", "target-system": "Prostaglandin E2 receptor EP2 subtype (Homo sapiens, UniProt P43116)", "pKi": 4.97}

====

pKi: −log10 of the molar value.
Record: pKi reported on Prostaglandin E2 receptor EP4 subtype (Homo sapiens, UniProt P35408).
Sequence (P35408 whole entry): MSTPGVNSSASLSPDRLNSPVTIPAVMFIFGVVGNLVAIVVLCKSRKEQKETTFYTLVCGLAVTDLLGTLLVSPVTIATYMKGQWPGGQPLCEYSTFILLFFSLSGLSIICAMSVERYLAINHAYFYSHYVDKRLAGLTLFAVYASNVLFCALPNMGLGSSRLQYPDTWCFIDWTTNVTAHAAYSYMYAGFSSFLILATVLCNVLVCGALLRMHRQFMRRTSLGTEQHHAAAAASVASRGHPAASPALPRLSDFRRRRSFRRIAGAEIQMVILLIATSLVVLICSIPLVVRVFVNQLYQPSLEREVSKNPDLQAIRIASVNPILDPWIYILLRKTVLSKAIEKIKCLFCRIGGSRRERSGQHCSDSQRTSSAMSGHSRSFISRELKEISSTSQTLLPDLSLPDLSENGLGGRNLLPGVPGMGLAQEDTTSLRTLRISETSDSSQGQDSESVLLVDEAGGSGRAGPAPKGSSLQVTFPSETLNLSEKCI

{"query-smiles": "COc1cc(C/C=C/c2ccccc2/C=C/C(=O)NS(=O)(=O)c2cccs2)ccc1OCCn1cc2ccccc2c1C#N", "pKi": 5.02}
{"query-smiles": "COc1cc(C/C=C/c2ccccc2/C=C/C(=O)NS(=O)(=O)c2cccs2)ccc1OCc1ccccc1", "pKi": 5.37}
{"query-smiles": "COc1cc(C/C=C/c2ccccc2/C=C/C(=O)O)ccc1OCc1ccccc1", "pKi": 5.20}
{"query-smiles": "COc1cc(C/C=C/c2ccccc2/C=C/C(=O)O)ccc1OCCn1cc2ccccc2c1C#N", "pKi": 5.50}
